Target: Adenosine receptor A2a (Homo sapiens, UniProt P29274); further: assay procedure not described here
Sequence (P29274 whole entry): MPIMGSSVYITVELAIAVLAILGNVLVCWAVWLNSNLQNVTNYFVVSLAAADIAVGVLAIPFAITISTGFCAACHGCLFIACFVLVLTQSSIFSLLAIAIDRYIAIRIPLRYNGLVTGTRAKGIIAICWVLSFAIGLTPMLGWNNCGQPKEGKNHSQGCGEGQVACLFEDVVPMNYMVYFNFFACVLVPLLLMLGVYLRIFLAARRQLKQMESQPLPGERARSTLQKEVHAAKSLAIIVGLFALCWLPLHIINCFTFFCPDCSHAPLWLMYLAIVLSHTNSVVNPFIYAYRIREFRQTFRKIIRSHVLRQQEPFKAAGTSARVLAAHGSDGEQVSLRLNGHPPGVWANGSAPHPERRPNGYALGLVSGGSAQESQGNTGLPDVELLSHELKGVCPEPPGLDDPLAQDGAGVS
PROPERTY: AC50

INSERT INTO measurements (molecule, property, recorded_result) VALUES
  ('CCSc1ccc2c(c1)N(CCCN1CCN(C)CC1)c1ccccc1S2 [THIETHYLPERAZINE]', 'AC50', '> 30 µM'),
  ('CC(=O)S[C@@H]1CC2=CC(=O)CC[C@]2(C)[C@H]2CC[C@@]3(C)[C@@H](CC[C@@]34CCC(=O)O4)[C@H]12 [SPIRONOLACTONE]', 'AC50', '> 30 µM'),
  ('CC(=N)N1CC[C@H](SC2=C(C(=O)O)N3C(=O)[C@H]([C@@H](C)O)[C@H]3C2)C1', 'AC50', '300 µM'),
  ('O=C(O)CSCC(=O)NC1CCSC1=O (stereo not drawn) [ERDOSTEINE]', 'AC50', '> 30 µM'),
  ('CC(C)(C)NC[C@H](O)COc1nsnc1N1CCOCC1 [TIMOLOL]', 'AC50', '> 30 µM'),
  ('NC(=O)c1ncn([C@@H]2O[C@H](CO)[C@@H](O)[C@H]2O)n1 [RIBAVIRIN]', 'AC50', '> 10 µM'),
  ('CC(=O)O[C@H]1C[C@@H]2CC[C@@H]3[C@H](CC[C@@]4(C)[C@H]3C[C@H]([N+]3(C)CCCCC3)[C@@H]4OC(C)=O)[C@@]2(C)C[C@@H]1[N+]1(C)CCCCC1 [PANCURONIUM]', 'AC50', '> 10 µM'),
  ('CC(CCc1ccccc1)NC(C)C(O)c1ccc(O)cc1 (stereo not drawn) [NYLIDRIN]', 'AC50', '> 30 µM'),
  ('CC(=O)Nc1c(I)c(C(=O)N[C@H]2C(O)O[C@H](CO)[C@@H](O)[C@@H]2O)c(I)c(N(C)C(C)=O)c1I (stereo partly drawn) [METRIZAMIDE]', 'AC50', '> 10 µM'),
  ('CC(=O)OCC(=O)[C@@]1(O)CC[C@H]2[C@@H]3CCC4=CC(=O)CC[C@]4(C)C3=CC[C@@]21C [ANECORTAVE ACETATE]', 'AC50', '> 10 µM'),
  ('CC(/C=C1\SC(=S)N(CC(=O)O)C1=O)=C\c1ccccc1', 'AC50', '26 µM'),
  ('Cc1ccc2c(-c3ccccc3)nc(=O)n(C(C)C)c2c1 [PROQUAZONE]', 'AC50', '> 30 µM'),
  ('CCOC(=O)NNc1ccc(N(CC)CC(C)O)nn1 (stereo not drawn) [CADRALAZINE]', 'AC50', '> 30 µM'),
  ('CC(C)(C)NCC(O)c1cc(Cl)c(N)c(Cl)c1 (stereo not drawn) [CLENBUTEROL]', 'AC50', '> 30 µM'),
  ('O=C(Nc1nc(-c2cc(Cl)cs2)c(N2CCN(C3CCCCC3)CC2)s1)c1cnc(N2CCC(C(=O)O)CC2)c(Cl)c1 [AVATROMBOPAG]', 'AC50', '> 10 µM'),
  ('CCn1cc(C(=O)O)c(=O)c2cc(F)c(N3CCNCC3)nc21 [ENOXACIN]', 'AC50', '> 30 µM'),
  ('O=C1Nc2ccc(Cl)cc2C(c2ccccc2)=NC1O (stereo not drawn) [OXAZEPAM]', 'AC50', '> 30 µM'),
  ('C[C@]12CC[C@H](O)CC1=CC[C@@H]1[C@@H]2CC[C@]2(C)C(c3cccnc3)=CC[C@@H]12 [ABIRATERONE]', 'AC50', '> 30 µM'),
  ('CN1C[C@H](C(=O)N[C@]2(C)O[C@@]3(O)[C@@H]4CCCN4C(=O)[C@H](Cc4ccccc4)N3C2=O)C[C@@H]2c3cccc4[nH]cc(c34)C[C@H]21 [DIHYDROERGOTAMINE]', 'AC50', '> 30 µM'),
  ('[H]/N=C(/N)N[C@H]1[C@H](O)[C@@H](O)[C@H](O[C@@H]2O[C@@H](C)[C@](O)(C=O)[C@H]2O[C@@H]2O[C@@H](CO)[C@H](O)[C@@H](O)[C@@H]2NC)[C@@H](N/C(N)=N\[H])[C@@H]1O [STREPTOMYCIN]', 'AC50', '> 30 µM'),
  ('Cc1ccc(=O)n(-c2ccccc2)c1 [PIRFENIDONE]', 'AC50', '> 30 µM'),
  ('C[C@H]1C[C@H]2[C@@H]3CCC4=CC(=O)C=C[C@]4(C)[C@@]3(Cl)[C@@H](O)C[C@]2(C)[C@@]1(O)C(=O)CO [BECLOMETHASONE]', 'AC50', '> 30 µM'),
  ('[H]/N=C(\N/C(=N/[H])NCCCCCCNC(=N)NC(=N)Nc1ccc(Cl)cc1)Nc1ccc(Cl)cc1 [CHLORHEXIDINE]', 'AC50', '> 30 µM'),
  ('CC1(C)O[C@@H]2C[C@H]3[C@@H]4C[C@H](F)C5=CC(=O)C=C[C@]5(C)[C@H]4[C@@H](O)C[C@]3(C)[C@]2(C(=O)CO)O1 [FLUNISOLIDE]', 'AC50', '> 30 µM'),
  ('CCCNC(C)C(=O)Nc1ccccc1C (stereo not drawn) [PRILOCAINE]', 'AC50', '> 30 µM'),
  ('C#C[C@]1(O)CC[C@H]2[C@@H]3CCc4cc(OC)ccc4[C@H]3CC[C@@]21C [MESTRANOL]', 'AC50', '> 30 µM'),
  ('Cc1cc(CC(=O)O)n(C)c1C(=O)c1ccc(Cl)cc1 [ZOMEPIRAC]', 'AC50', '> 30 µM'),
  ('CC1(C)S[C@@H]2[C@H](NC(=O)[C@H](N)c3ccc(O)cc3)C(=O)N2[C@H]1C(=O)O [AMOXICILLIN]', 'AC50', '> 30 µM');
